System: Caco-2 (colorectal cancer) cell line
Test: MTT cell viability assay, Caco-2
Format: cell-based
Settings: 24 h exposure
Endpoint name: pIC50
Quick note: pIC50 means taking -log10 of the concentration in moles per liter.

Exam item: State the recorded pIC50 for this entry: Cc1ccc(C(C)C)cc1.Cc1ccc(S(=O)(=O)[N](CCNc2cccc3ccccc23)[Ru][Cl])cc1
Marked response: 5.86

====

Tested on: Vero (normal kidney) cell line
Assay: MTT cell viability assay, Vero
Type: cell-based
Details: 48 h exposure, MTT
Endpoint name: IC50 (µM)
State the answer as a number, implicitly in µM.

Exam item: Given the entry Cc1ccc(C(C)C)cc1.Cc1ccc(S(=O)(=O)[N](CCNc2cccc3ccccc23)[Ru][Cl])cc1 [Ru2] , report its measured IC50.
Marked response: 38.3
